assay: antimalarial activity against Dd2 strain (AID 2302);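 note: 0% = DMSO untreated growth and 100% = chloroquine plus artemisinin killed control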; conditions: P. falciparum Dd2 in RBCs, LDH growth readout, 72 h; at 2 µM
Active and inactive are the calls of the source.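 Rule for the calls: active = growth inhibition above 50% at the single 2 µM test dose, taken to imply half-maximal potency below 2 µM; inactive = the rest.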
Response enum: 1 (yes) (active), 0 (no) (inactive)

Worked cases, answers included:
{"COMPOUND": "c1ccc2c(NCCc3cnc[nH]3)c3ccccc3nc2c1", "GROUP": "0 (no)"}
{"COMPOUND": "O=C(Nc1cccc(C2=NCCCN2)c1)Nc1cccc(C2=NCCCN2)c1", "GROUP": "1 (yes)"}
{"COMPOUND": "NOCCCCOc1ccc(Br)cc1", "GROUP": "0 (no)"}
{"COMPOUND": "COc1ccc(Nc2nc(NC3CCCC3)cc(-c3ccc(OC)cc3)n2)cc1", "GROUP": "0 (no)"}
{"COMPOUND": "CCCCOC(=O)C1=C(C)NC2=C(C(=O)CCC2)C1c1ccc(OC)c(Br)c1 (stereo unspecified)", "GROUP": "1 (yes)"}

IN: What did the test return for Cc1cc(N[C@@H](CC(C)C)C(=O)NC2CCCC2)nc(NCC2CCCCC2)n1 ?
OUT: 1 (yes)

IN: Item: CCCCCCCNC(=O)NCC1CCCN(CCCCCNC(=O)/C=C/c2ccc(Cl)c(Cl)c2)C1 (stereo unspecified)
OUT: 0 (no)

IN: Another: Clc1ccc(-c2cnc3ccc(NCc4ccncc4)nn23)cc1
OUT: 1 (yes)

IN: Try the compound CN1CCN(CCNc2c3ccccc3nc3c2ccc2ccccc23)CC1
OUT: 1 (yes)

* * *

target: Protein kinase 7 (PK7), Plasmodium falciparum 3D7 (PF3D7_0213400); test: inhibition of Plasmodium PK7 catalytic activity – biochemical, TCAMS antimalarial set, Kinase-Glo luminescence (AID 1159587); conditions: recombinant PfPK7, Kinase-Glo ATP depletion luminescence
The source made the active and inactive calls. The rule behind the calls is not given here.
ASSAY ENDPOINT: outcome

Solved cases below.
{"COMPOUND": "COc1ccc2nccc([C@@H](O)CN3CCC(NC(=O)c4cc5ccccc5[nH]4)CC3)c2c1", "SYSTEM": "Protein kinase 7 (PK7), Plasmodium falciparum 3D7 (PF3D7_0213400)", "DATA VALUE": "inactive"}
{"COMPOUND": "O=C(/C=C/c1ccc(Cl)c(Cl)c1)N1CCC(CCN2CCC(c3c[nH]c4cnccc34)CC2)CC1", "SYSTEM": "Protein kinase 7 (PK7), Plasmodium falciparum 3D7 (PF3D7_0213400)", "DATA VALUE": "inactive"}
{"COMPOUND": "O=c1cc(NCCNCc2cccc(-c3ccccc3)c2)[nH]c2ccccc12", "SYSTEM": "Protein kinase 7 (PK7), Plasmodium falciparum 3D7 (PF3D7_0213400)", "DATA VALUE": "inactive"}
{"COMPOUND": "O=[N+]([O-])c1cccc(CNC2CCN(Cc3ccc4ccccc4c3)CC2)c1", "SYSTEM": "Protein kinase 7 (PK7), Plasmodium falciparum 3D7 (PF3D7_0213400)", "DATA VALUE": "inactive"}
{"COMPOUND": "O=C(NCCCCN1CCC(c2ccc([N+](=O)[O-])cc2)CC1)c1ccc(NC(=O)c2ccc(Cl)cc2)cc1", "SYSTEM": "Protein kinase 7 (PK7), Plasmodium falciparum 3D7 (PF3D7_0213400)", "DATA VALUE": "inactive"}

IN: Returns the measured outcome for the input compound. Input: Cc1nc(-c2cccc(Nc3nccc(NCC(O)c4ccc(C(F)(F)F)cc4)n3)c2)cs1 (stereo not given)
OUT: inactive

IN: Entry c1ccc(Oc2ccc(Nc3ccnc4cc(-c5csc(CN6CCCCC6)n5)ccc34)cc2)nc1 please
OUT: inactive

IN: Repeat with C[C@H](Nc1c(Nc2ccc3[nH]ccc3c2)c(=O)c1=O)C1CCCCC1
OUT: inactive

IN: Also check CC(=Nc1ccc(Cl)c(Cl)c1)N(C)C
OUT: inactive

IN: How about CCCNc1ccc2nccc(CCN3CCC(NCc4ccc5c(c4)NC(=O)CS5)CC3)c2n1 ?
OUT: inactive

IN: Cool, now CN(C)c1ccc(-c2csc(C(=O)NCC3CCN(CCC(C)(C)C)C3)c2)cc1 (stereo not given)
OUT: inactive

IN: Also need CN(C)c1ccc(C=C2SC(=Nc3ccccc3)N(c3ccccc3)C2=O)cc1[N+](=O)[O-] , thanks.
OUT: inactive

IN: Now try CN1CCC(c2csc3ccc(NC(=O)Nc4ccc(-c5ccncc5)c5ccccc45)cc23)CC1 .
OUT: inactive

IN: Try Cc1[nH]c(C)c(-c2ccc(OCCOc3ccc(C(F)(F)F)cn3)cc2)c(=O)c1Br next.
OUT: inactive

IN: How about CC(C)C[C@H](Nc1ccnc(NCC2CCCCC2)n1)C(=O)Nc1ccccc1 ?
OUT: inactive

IN: Try the compound O=C(NCCc1cccc(F)c1)c1ccc(N2CCN(c3ccncc3)CC2)cn1
OUT: inactive

IN: What do we get for COc1cccc(CNC[C@@H](O)[C@H](Cc2ccccc2)NC(=O)c2cc(C(C)C)cc(N3CCCC3=O)c2)c1 ?
OUT: inactive

IN: Param item: Cc1[nH]c(C)c(-c2ccc(-c3cccc(OC(F)(F)F)c3)nc2)c(=O)c1Cl
OUT: inactive

IN: Do the same for O=C(Nc1cccc(-c2nn3ccccc3c2-c2ccnc(Nc3ccccc3)n2)c1)c1cc(F)ccc1F please
OUT: inactive

IN: Field entry: CNc1nc(NN=Cc2ccccc2Cl)nc(Nc2cccc(C(F)(F)F)c2)n1
OUT: inactive

IN: // query: Cc1[nH]cnc1CSCCNC(=NCCCCCCCCN=C(NC#N)NCCSCc1nc[nH]c1C)NC#N
OUT: inactive

IN: Moving on to Cn1nccc1C(=O)NCCNCc1cccc(-c2csc(-c3nc4ccccc4[nH]3)c2)c1
OUT: inactive

IN: Same question for O=C(Nc1cccc(-c2ccc(-c3nc4ccc(F)cc4[nH]3)s2)c1)c1cccnc1 please.
OUT: inactive

IN: Moving on to the next compound: CC(C)(C)c1ccc(NC(=O)c2cccc(CN3CCN(Cc4cccc(O)c4)CC3)c2)cc1
OUT: inactive

IN: Now the same for COCCNC(=O)c1ccc(OC2CCN(CC(C)=Cc3ccccc3)CC2)c(Cl)c1
OUT: inactive

IN: Proceed to Cc1cccc2[nH]c(-c3ccc(-c4ccc(CNCc5ccc(CN)cc5)cc4)cc3)nc12
OUT: inactive

IN: // query: Cc1c(-c2cccc(C(C)(C)NCCCN3CCCCC3)c2)cnc(N)c1C
OUT: inactive

IN: Do the same for COc1ccc2c(NN=Cc3ccc(N(C)C)cc3)ccnc2c1 please
OUT: inactive

IN: Cool, now O=[N+]([O-])c1ccc(CNCCCCCCNCc2ccc([N+](=O)[O-])c3ccccc23)c2ccccc12
OUT: inactive

* * *

// values below are reported growth inhibition
assay: antimalarial activity against Dd2 strain (AID 2302);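 note: 0% = DMSO untreated growth and 100% = chloroquine plus artemisinin killed control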; settings: P. falciparum Dd2 in RBCs, LDH growth readout, 72 h; at 2 µM; active compounds read high
Active and inactive are the calls of the source.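 The calls were made as follows: active = growth inhibition above 50% at the single 2 µM test dose, taken to imply half-maximal potency below 2 µM; inactive = the rest.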

Examples from the recorded data:
{"COMPOUND": "COc1ccc(CNCCCCCCCNCc2ccc(Cl)c(Cl)c2)cc1Cl", "growth inhibition": "18% (inactive)"}
{"COMPOUND": "CCCCCC(=O)N1CCOC(CCN2CCC(c3ccccc3)CC2)(c2ccc(Cl)c(Cl)c2)C1 (stereo not drawn)", "growth inhibition": "51% (active)"}

IN: Entry under review: O=C(/C=C/c1ccc(Cl)c(Cl)c1)NCCCCCN1CCC(NC(=O)NCCc2ccccc2)CC1 . Reported growth inhibition?
OUT: 7% (inactive)

IN: Another compound: O=C(Nc1cccc(-c2ccc(CN3CCC(O)CC3)cc2)c1)c1cccc(Cl)c1
OUT: 2% (inactive)

IN: // repeat for Cc1cc(N2CCOCC2)nc2ccc(NC(=O)c3cccc([N+](=O)[O-])c3)cc12 and report
OUT: 37% (inactive)

IN: How about this compound: O=C(O)C1CC(=O)N(c2ccc(Cl)cc2)C1 (stereo not drawn)
OUT: 33% (inactive)

IN: Similarly, O=C(Nc1ccc(OC2CCN(Cc3ccccc3)C2)c(Cl)c1)c1ccc(F)cc1 (stereo not drawn) ?
OUT: 87% (active)

IN: Same for OC(CNCCCCCCNCC(O)c1ccc(Cl)c(Cl)c1)c1ccc(Cl)c(Cl)c1 (stereo not drawn)
OUT: 17% (inactive)

IN: Please do the same for CC1(C)N=C(N)N=C(N)N1OCCCOc1cccc(Cl)c1 as well.
OUT: 95% (active)

IN: Likewise for Cc1cccc2[nH]c(-c3ccc(-c4cccc(CNCCN(C)C)c4)cc3)nc12 ?
OUT: 98% (active)

IN: What about Cc1cc(Nc2ncc3c(n2)N(C2CCC2)CC3)ccc1N1CCN(C)CC1 ?
OUT: 100% (active)

IN: Can you check CCCNCc1ccc(-c2ccc(CN(CCOC)C(=O)c3cnc(C)cn3)cc2)nc1 next?
OUT: 14% (inactive)

IN: Now consider FC(F)(F)c1cccnc1N1CCC(Nc2nc3ccc(Cl)cc3[nH]2)CC1 and answer again.
OUT: 39% (inactive)

IN: Now the same for O=c1cc(NC[C@H]2CCC[C@@H]2NCc2cc(Br)cc(Br)c2)[nH]c2ccccc12
OUT: 45% (inactive)

IN: CN1CCN(c2ccnc3cc4ccccc4cc23)CC1 ?
OUT: 49% (inactive)

IN: Let us now turn to CC(C)c1cc(Oc2c(I)cc(CCCc3ncc[nH]3)cc2I)ccc1O
OUT: 1% (inactive)

IN: Now try CC(C)(C)Cn1cc(-c2ccc(C(=O)NCCc3ccc(S(C)(=O)=O)cc3)cc2)c(N)n1 (tested in a mixture with another compound) .
OUT: 10% (inactive)

IN: Now this one: CN1CCN(CCCN(Cc2cccc(-c3cccc(CNCCc4ccccc4)c3)c2)C(=O)Nc2ccccc2)CC1
OUT: 82% (active)
